species on record: Rattus norvegicus; experiment: Compound was evaluated for inhibition of binding of [3H]dopamine to rat caudate tissue.; assay type: functional, organism-based
OBSERVABLE: IC50 (nM)

CHEMICAL SMILES | MEASUREMENT UNITS | NUMERIC READOUT
CCN1CCC[C@H]2c3cc(O)cc(O)c3CC[C@H]21 | nM | 430
Oc1cc(O)c2c(c1)C[C@H]1NCCC[C@@H]1C2 | nM | 12800
CCN1CCC[C@@H]2c3cc(O)cc(O)c3CC[C@H]21 | nM | 90
CCCN1CCC[C@@H]2Cc3c(O)cc(O)cc3C[C@H]21 | nM | 370
Oc1cc(O)c2c(c1)[C@@H]1CCCN[C@H]1CC2 | nM | 1000
CCCN1CCC[C@H]2c3cc(O)cc(O)c3CC[C@H]21 | nM | 1700
CCN1CCC[C@@H]2Cc3c(O)cc(O)cc3C[C@H]21 | nM | 440
Oc1cc(O)c2c(c1)[C@@H]1CCCN[C@@H]1CC2 | nM | 11100
CCCN1CCC[C@@H]2c3cc(O)cc(O)c3CC[C@H]21 | nM | 40
